Molecular target: T1, GLP-1R (INS1e assay) (UniProt P32301 22-463, limits assumed)
T1 sequence (looked up): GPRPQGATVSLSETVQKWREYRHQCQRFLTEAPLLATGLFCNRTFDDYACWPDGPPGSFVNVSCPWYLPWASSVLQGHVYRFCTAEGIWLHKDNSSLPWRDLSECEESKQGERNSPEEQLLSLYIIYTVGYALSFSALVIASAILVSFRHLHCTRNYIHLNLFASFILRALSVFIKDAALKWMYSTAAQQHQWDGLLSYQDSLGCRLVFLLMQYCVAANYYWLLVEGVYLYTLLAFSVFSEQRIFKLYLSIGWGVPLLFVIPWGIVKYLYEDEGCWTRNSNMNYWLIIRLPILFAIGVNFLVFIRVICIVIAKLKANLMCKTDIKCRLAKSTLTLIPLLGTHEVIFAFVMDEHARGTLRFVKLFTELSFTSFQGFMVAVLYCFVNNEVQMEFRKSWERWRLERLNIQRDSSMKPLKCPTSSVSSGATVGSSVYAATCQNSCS
Assay: cell-based or functional assay
Starred links: 1 amine or outer side, 2 acyl side, 3 side chain; linkers in the order of their positions; H or OH if unused. Non-standard residues stand in square brackets, D forms with d. Groups on a side chain read outwards from the residue. Primed or numbered codes have the meaning given here. No end group written: not given here. *: point of attachment. γGlu = O=C(O)[C@H](CCC(=O)[*:2])N[*:1]; Stearoyl = CCCCCCCCCCCCCCCCCC(=O)*; αMeF = C[C@](N)(Cc1ccccc1)C(=O)O; αMeK = C[C@](N)(CCCCN)C(=O)O; αMeS = C[C@](N)(CO)C(=O)O; PEG2′ = not defined here; Aib = CC(C)(N)C(=O)O
metric name: INS1e assay EC50 GLP-1 R n1 (nM)

Below, 2 binders whose answers are already recorded.
[
  {
    "binder": "H[Aib]EGS[αMeF]TSDV[αMeS]S[αMeF]LEGEK([PEG2′-PEG2′-γGlu-Stearoyl])A[αMeK]E[αMeF]IA[αMeF]VV[αMeK]GG-NH2 [SEQ ID NO 111]",
    "INS1e assay EC50 GLP-1 R n1 (nM)": 0.501
  },
  {
    "binder": "H[Aib]EGS[αMeF]TSDV[αMeS]S[αMeF]K([PEG2′-PEG2′-γGlu-Stearoyl])EGEAA[αMeK]E[αMeF]IA[αMeF]VV[αMeK]GG-NH2 [SEQ ID NO 115]",
    "INS1e assay EC50 GLP-1 R n1 (nM)": 0.593
  }
]

[a] H[Aib]EGS[αMeF]TSDV[αMeS]S[αMeF]LEGEAAK([PEG2′-PEG2′-γGlu-Stearoyl])E[αMeF]IA[αMeF]VV[αMeK]GG-NH2 [SEQ ID NO 3]
[b] H[Aib]EGS[αMeF]TSDVSK([PEG2′-PEG2′-γGlu-Stearoyl])YLEGEAA[αMeK]E[αMeF]IA[αMeF]VVEGG-NH2 [SEQ ID NO 60]
Query: Sorting ascending by INS1e assay EC50 GLP-1 R n1, which comes first: a or b ? Select an item and report its label.
Response: a
(a: 3.59 nM, b: 14.3 nM)
